Data provenance: patent US20220249479A1

Procedure text: Multiple-dose PK of API-in-capsule formulation BID for 10 days in healthy human subjects
Assay type: in vivo
Experimental conditions: human, CSF / unbound plasma, oral; healthy young and healthy elderly, Day 10, 25, 80 and 100 mg BID immediate release capsule; read-out: mean CSF to unbound plasma ratio
Measurement kind: Kp at 10 day

Inquiry: Returns the measured Kp at 10 day for the input compound. Input: CNc1nc(Nc2cn(C(C)(C)C#N)nc2C)ncc1C(F)(F)F
Reply text: ~1
